Tested on: 786-0
protocol.description: NCI tumour cell line growth inhibition, 48 h
Calls of active or inactive are those of the source. No stated cut-off is given here; in the data, active = GI50 up to about 1.1 µM and inactive = higher.
measurement.kind: GI50

> print(dat)
                                    compound                result
 1  COc1cc2c(c(O)c1OC)C(=O)[C@@H]1CCC(=O)N1C2c1ccccc1 (some centres not stated)   > 100 µM (inactive)
 2  COC(=O)/C=C1\C(=O)C=C2[C@@H]3C[C@H]4C[C@H](CC[C@@]4(C)N21)C3(C)NC(C)=O (some centres not stated)    3.51 µM (inactive)
 3  CN1C(=O)CC(CC(=O)C2CCCCC2=O)CC1=O (configuration not stated)   > 100 µM (inactive)
 4  CC(/C(=N\Nc1ccccc1)c1ccc(O)cc1)C1C(=O)Oc2ccccc21 (configuration not stated)   > 100 µM (inactive)
 5  Cc1ccc(C(=O)Oc2ccc(/C=C3\CCC/C(=C\c4ccc(OC(=O)c5ccc(C)cc5)cc4)C3=O)cc2)cc1   > 100 µM (inactive)
 6  COc1ccc(/C=c2/sc3n(c2=O)NC2(CCCCC2)NN=3)cc1   > 100 µM (inactive)
 7  Clc1ccc(-c2nn3c(CCCCCCCCc4nnc5sc(-c6ccc(Cl)cc6)nn45)nnc3s2)cc1    20.1 µM (inactive)
 8      N/C(COc1ccc(Cl)cc1)=N\NC(=O)c1ccncc1    54.3 µM (inactive)
 9           O=C(Nc1ccn(CCO)c(=O)n1)c1ccccc1   > 100 µM (inactive)
10              N#CC(C#N)=NNc1ccc2cn[nH]c2c1    43.6 µM (inactive)
11          CCN(CC)C(=S)S [DITIOCARB SODIUM]    67.9 µM (inactive)
12  Nc1ncnc2c1cnn2Cc1cn(COCC(O)CO)nn1 (configuration not stated)   > 100 µM (inactive)
13  C[C@H]1[C@H](C)N1CC(O)Cn1ccnc1[N+](=O)[O-] (some centres not stated)   > 100 µM (inactive)
14                     Cc1ncn(-c2ccccc2O)c1C   > 100 µM (inactive)
15  COc1cc(C2SCC(=O)N2c2ccc(Cl)c(Cl)c2)cc(OC)c1OC (configuration not stated)  > 55.6 µM (inactive)
16  CC(=O)C(CN(Cc1ccccc1)Cc1ccccc1)C(c1ccccc1)c1c(O)c2ccccc2oc1=O (configuration not stated)   > 100 µM (inactive)
17  C=C1C(=O)O[C@H]2[C@H]3O[C@@H](C[C@@H]12)[C@@]1(C)CC[C@H](O1)C(C)=CCC[C@H]3C    1.31 µM (inactive)
18  CC(C)OC1OC(CO)C(O)CC1n1cc(F)c(=O)[nH]c1=O (configuration not stated)   > 100 µM (inactive)
19             NS(=O)(=O)c1c(O)c2ccccc2oc1=O   > 100 µM (inactive)
20  O=C1c2ccccc2C(=O)N1CCCCCCNOCCCN1C(=O)c2ccccc2C1=O    99.1 µM (inactive)
21  COC(=O)/C(C#N)=C/c1cc(C(C)(C)C)c(O)c(C(C)(C)C)c1    3.15 µM (inactive)
22                 COc1ccc(OC)c(NC2=NCCO2)c1   > 100 µM (inactive)

Ref: ChEMBL document CHEMBL1201862
